Study System: T1, recombinant human IL-8, (ser-IL-8)72 (human, UniProt P10145 28-99)
T1 construct: mature; radio-iodinated when used as tracer; also called human wild type IL-8; wt IL-8
T1 sequence (looked up): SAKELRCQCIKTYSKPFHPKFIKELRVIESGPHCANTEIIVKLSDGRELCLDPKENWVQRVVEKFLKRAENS
Experimental Details: inhibition of 125I-IL-8 binding to human neutrophils
Give measured pIC50 for each item. Keep answers brief.
Note: pIC50 values are expressed as the negative base-10 logarithm of concentration in M.

(Q) Name the reported pIC50 value associated with the binder humanized 6G425 F(ab)-1 (Fab, V domains shown, Fab with human kappa subgroup I light chain and human IgG1 subgroup III heavy chain (vector pEMX1); also called version 1; VI) VH: EVQLVESGGGLVQPGGSLRLSCAASGYSFSSHYMHWVRQAPGKGLEWVGYIDPSNGETTYNQKFKGRFTISRDNSKNTLYLQMNSLRAEDTAVYYCARGDYRYNGDWFFDVWGQGTLVTVSS VL: DIQMTQSPSSLSASVGDRVTITCRSSQSLVHGIGNTYLHWYQQKPGKAPKLLIYKVSNRFSGVPSRFSGSGSGTDFTLTISSLQPEDFATYYCSQSTHVPLTFGQGTKVEIKR
(A) 7.20

(Q) Name the reported pIC50 value associated with the binder humanized 6G425 F(ab)-7 (Fab, V domains shown, Template F(ab)-6; Fab constant parts as F(ab)-1; also called version 16) VH: EVQLVESGGGLVQPGGSLRLSCAASGYSFSSHYMHWVRQAPGKGLEWVGYIDPSNGETTYNQKFKGRFTLSRDNSKNTAYVQMNSLRAEDTAVYYCARGDYRYNGDWFFDVWGQGTLVTVSS VL: DIQMTQSPSSLSASVGDRVTITCRSSQSLVHGIGNTYLHWYQQKPGKAPKLLIYKVSNRFSGVPSRFSGSGSGTDFTLTISSLQPEDFATYYCSQSTHVPLTFGQGTKVEIKR
(A) 7.42

(Q) Name the reported pIC50 value associated with the binder humanized 6G425 F(ab)-3 (Fab, V domains shown, Template F(ab)-1; Fab constant parts as F(ab)-1; also called version 3) VH: EVQLVESGGGLVQPGGSLRLSCAASGYSFSSHYMHWVRQAPGKGLEWVGYIDPSNGETTYNQKFKGRFTISVDNSKNTLYLQMNSLRAEDTAVYYCARGDYRYNGDWFFDVWGQGTLVTVSS VL: DIQMTQSPSSLSASVGDRVTITCRSSQSLVHGIGNTYLHWYQQKPGKAPKLLIYKVSNRFSGVPSRFSGSGSGTDFTLTISSLQPEDFATYYCSQSTHVPLTFGQGTKVEIKR
(A) 7.10

(Q) Name the reported pIC50 value associated with the binder humanized 6G425 F(ab)-2 (Fab, V domains shown, Template F(ab)-1; Fab constant parts as F(ab)-1; also called version 2) VH: EVQLVESGGGLVQPGGSLRLSCAASGYSFSSHYMHWVRQAPGKGLEWVGYIDPSNGETTYNQKFKGRATISRDNSKNTLYLQMNSLRAEDTAVYYCARGDYRYNGDWFFDVWGQGTLVTVSS VL: DIQMTQSPSSLSASVGDRVTITCRSSQSLVHGIGNTYLHWYQQKPGKAPKLLIYKVSNRFSGVPSRFSGSGSGTDFTLTISSLQPEDFATYYCSQSTHVPLTFGQGTKVEIKR
(A) 6.97
